Ref: the Human Domainome abundance scans (Beltran et al. 2025)

B1: Tesmin, residues 368 to 403; numbered along this chain, Q9Y4I5 (parent)
chain: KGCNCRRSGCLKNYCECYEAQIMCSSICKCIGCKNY

- Variants of: B1
- assay.summary: abundance fitness (aPCA) (normalised: wild type 0, dead -1); higher = more abundant; growth selection in yeast, the domain comes from the species named
- cond: Homo sapiens
experimental.readout: abundance fitness
Answer with a number only.

KGCNCRRSGCLWNYCECYEAQIMCSSICKCIGCKNY: -0.643

Prompt: What value of abundance fitness has been recorded for this entry: "KGCNCRRSGCLKNYCECYETQIMCSSICKCIGCKNY"
Response: -0.196

Prompt: What value of abundance fitness has been recorded for this entry: "KGHNCRRSGCLKNYCECYEAQIMCSSICKCIGCKNY"
Response: -0.363

Prompt: What value of abundance fitness has been recorded for this entry: "KGINCRRSGCLKNYCECYEAQIMCSSICKCIGCKNY"
Response: -0.51
